The following compounds are listed with their measured inhibition values.
target: IL33 and ST2 binding (Homo sapiens); details: 30 µM;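 also: plate ELISA with coated Flag-tagged human IL-33 and His-tagged human ST2, bound ST2 detected by anti-His HRP and TMB absorbance at 450 nm, 2 h compound incubation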
Sequence (O95760 112-270 limits assumed): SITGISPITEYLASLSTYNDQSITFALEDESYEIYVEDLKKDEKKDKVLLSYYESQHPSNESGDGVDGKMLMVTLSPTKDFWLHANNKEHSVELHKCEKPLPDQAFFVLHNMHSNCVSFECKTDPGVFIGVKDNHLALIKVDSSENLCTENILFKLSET
experimental_endpoint: inhibition (%)

CN(C)CCNC(=O)c1nc(-c2ccc(N(C)C)cc2)oc1-c1ccccc1[N+](=O)[O-]: -35
CN(C)CCNC(=O)c1nc(-c2ccc(OC(F)(F)F)cc2)oc1-c1ccccc1: -9
CNC(=O)c1nc(-c2ccc(C(F)(F)F)cc2)oc1-c1cccc(SC)c1: 112
CCOC(=O)c1nc(-c2cccc(F)c2)oc1-c1ccccc1[N+](=O)[O-]: 49
COc1ccc(-c2nc(C(=O)NCCN(C)C)c(-c3ccccc3[N+](=O)[O-])o2)cc1: -28
CCOC(=O)c1nc(-c2ccc(C#N)cc2)oc1-c1ccccc1[N+](=O)[O-]: 37
CN(C)CCNC(=O)c1nc(-c2ccc(Cl)cc2)oc1-c1ccccc1: 0
CN1CCN(CCNC(=O)c2nc(-c3ccc(-c4ccccc4)cc3)oc2-c2ccccc2[N+](=O)[O-])CC1: 3
CCOC(=O)c1nc(-c2ccc(C(F)(F)F)cc2)oc1-c1cccc(SC)c1: 108
O=C(c1nc(-c2ccc(C(F)(F)F)cc2)oc1-c1ccccc1[N+](=O)[O-])N1CCN(CCN2CCCCC2)CC1: -33
CCOC(=O)c1nc(-c2ccccc2C(F)(F)F)oc1-c1ccccc1[N+](=O)[O-]: 30
CN(C)CCNC(=O)c1nc(-c2ccc(C#N)cc2)oc1-c1ccccc1[N+](=O)[O-]: -6
CCOC(=O)c1nc(-c2ccc(C(F)(F)F)cc2)oc1-c1cccc([N+](=O)[O-])c1: 107
O=C(NCCCn1ccnc1)c1nc(-c2ccc(C(F)(F)F)cc2)oc1-c1ccccc1[N+](=O)[O-]: 31
CN1CCN(CCNC(=O)c2nc(-c3ccc(N(C)C)cc3)oc2-c2ccccc2)CC1: 14
O=C(c1nc(-c2ccc(C(F)(F)F)cc2)oc1-c1ccccc1[N+](=O)[O-])N1CCN(CCO)CC1: -4
